Origin of the recorded values: the supplement of paper PMC10567573

B1: KCNA4 (parent)
chain: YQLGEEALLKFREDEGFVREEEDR

Variants of: B1
Test: protein stability index of a GFP-peptide fusion (GPS, HEK-293T) (PSI 1-6); higher = more stable;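 further: lentivirally expressed fusions sorted by FACS into six bins by GFP to DsRed ratio, PSI derived from sequencing read proportions per bin multiplied by bin number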
Details: c terminus: a fixed tail appended
Value Type: protein stability index
Reply with just the number.

{"Biopolymer Sequence": "YQLGEEALLKFREDEGFVREESDR [E22S]", "protein stability index": 4.02}

So what's the measured protein stability index for this one? KQLGEEALLKFREDEGFVREEEDR [Y1K]
5.6

So what's the measured protein stability index for this one? YQLGEEALLKFREDEGFVREEYDR [E22Y]
3.58

So what's the measured protein stability index for this one? YQLGEEALLKFREDEGFGREEEDR [V18G]
4.43

So what's the measured protein stability index for this one? YQLGEEALLKFREDEGFVREEMDR [E22M]
4.92

So what's the measured protein stability index for this one? YQLGEEALLKFREDPGFVREEEDR [E15P]
3.99

So what's the measured protein stability index for this one? YQLGEEALLKFREDEGFVRCEEDR [E20C]
4.05
